Test Protocol: photoluminescence quantum yield (fraction); solvent given as SMILES
Test Conditions: in C1CCOC1
Quantity Measured: photoluminescence quantum yield
Please reply with the number alone, leaving off any unit.

// query Requested field: photoluminescence quantum yield. Item: CC(C)(C)c1ccc(-c2c(-c3cccc(N(c4ccccc4)c4ccccc4)c3)c(C#N)c(-c3cccc(N(c4ccccc4)c4ccccc4)c3)c(-c3ccc(C(C)(C)C)cc3)c2-c2ccc(C(C)(C)C)cc2)cc1
// result 0.072

// query Requested field: photoluminescence quantum yield. Item: Cc1cc(C)c(B(c2ccc(-c3ccc(-c4nc5c6ccccc6c6ccccc6c5[nH]4)cc3)cc2)c2c(C)cc(C)cc2C)c(C)c1
// result 0.74

// query Requested field: photoluminescence quantum yield. Item: COc1ccccc1-c1c(-c2ccccc2O)nc(-c2ccc(C(F)(F)F)cc2)n1-c1ccc(C)cc1
// result 0.01

// query Requested field: photoluminescence quantum yield. Item: c1cc2c3c(c1)-c1cccc4ccn(c14)B3n1ccc3cccc-2c31
// result 0.65

// query Requested field: photoluminescence quantum yield. Item: C[Si](C)(C)c1ccc(-c2ccc(-c3ccc(-c4ccc(-c5ccc([Si](C)(C)C)cc5)s4)c4nsnc34)s2)cc1
// result 0.77

// query Requested field: photoluminescence quantum yield. Item: Cc1sc(-c2ccc(-c3nc(-c4ccccc4)c(-c4ccccc4)[nH]3)cc2)c(C)c1C1=C(c2c(C)n(C)c3ccccc23)C(F)(F)C(F)(F)C1(F)F
// result 0.084

// query Requested field: photoluminescence quantum yield. Item: O=C1OC(c2ccccc2)=N/C1=C\c1ccc(N(c2ccccc2)c2ccccc2)cc1
// result 0.108

Sourced from the Deep4Chem optical property database
